System: elastic fibers of the dermis
test-name: morphometric quantification of elastic fibers in skin explants
Format: cell-based, Human
condition-parameters: D5; applied twice per day, 5 μL per explant
The threshold is inclusive: Morphometric quantification of elastic fibers in the middle dermis (%) of exactly 9% counts as y; values below receive n.

Field: example entries. Status: answers known.
- sequence-string: "RHGEWRPSY [0723.01]"
  assigned-label: "y"
- sequence-string: "QQYGIAASPFLQSAA [0723.07]"
  assigned-label: "n"
- sequence-string: "VLLEQQEQEPQH [0723.05]"
  assigned-label: "n"
- sequence-string: "DEHQKIHQFR [0723.08]"
  assigned-label: "n"

For the next question, use this sequence.
Does the sequence EDLRLVDLVIPVNGPGKFE [0723.06] have recorded Morphometric quantification of elastic fibers in the middle dermis (%) that is 9% or more?
n
